Consider the following compounds; for each one, report its composite z-score.
- TARGET_DESC: Epidermal growth factor receptor (Homo sapiens) (UniProt P00533)
- Sequence (P00533 whole entry, looked up): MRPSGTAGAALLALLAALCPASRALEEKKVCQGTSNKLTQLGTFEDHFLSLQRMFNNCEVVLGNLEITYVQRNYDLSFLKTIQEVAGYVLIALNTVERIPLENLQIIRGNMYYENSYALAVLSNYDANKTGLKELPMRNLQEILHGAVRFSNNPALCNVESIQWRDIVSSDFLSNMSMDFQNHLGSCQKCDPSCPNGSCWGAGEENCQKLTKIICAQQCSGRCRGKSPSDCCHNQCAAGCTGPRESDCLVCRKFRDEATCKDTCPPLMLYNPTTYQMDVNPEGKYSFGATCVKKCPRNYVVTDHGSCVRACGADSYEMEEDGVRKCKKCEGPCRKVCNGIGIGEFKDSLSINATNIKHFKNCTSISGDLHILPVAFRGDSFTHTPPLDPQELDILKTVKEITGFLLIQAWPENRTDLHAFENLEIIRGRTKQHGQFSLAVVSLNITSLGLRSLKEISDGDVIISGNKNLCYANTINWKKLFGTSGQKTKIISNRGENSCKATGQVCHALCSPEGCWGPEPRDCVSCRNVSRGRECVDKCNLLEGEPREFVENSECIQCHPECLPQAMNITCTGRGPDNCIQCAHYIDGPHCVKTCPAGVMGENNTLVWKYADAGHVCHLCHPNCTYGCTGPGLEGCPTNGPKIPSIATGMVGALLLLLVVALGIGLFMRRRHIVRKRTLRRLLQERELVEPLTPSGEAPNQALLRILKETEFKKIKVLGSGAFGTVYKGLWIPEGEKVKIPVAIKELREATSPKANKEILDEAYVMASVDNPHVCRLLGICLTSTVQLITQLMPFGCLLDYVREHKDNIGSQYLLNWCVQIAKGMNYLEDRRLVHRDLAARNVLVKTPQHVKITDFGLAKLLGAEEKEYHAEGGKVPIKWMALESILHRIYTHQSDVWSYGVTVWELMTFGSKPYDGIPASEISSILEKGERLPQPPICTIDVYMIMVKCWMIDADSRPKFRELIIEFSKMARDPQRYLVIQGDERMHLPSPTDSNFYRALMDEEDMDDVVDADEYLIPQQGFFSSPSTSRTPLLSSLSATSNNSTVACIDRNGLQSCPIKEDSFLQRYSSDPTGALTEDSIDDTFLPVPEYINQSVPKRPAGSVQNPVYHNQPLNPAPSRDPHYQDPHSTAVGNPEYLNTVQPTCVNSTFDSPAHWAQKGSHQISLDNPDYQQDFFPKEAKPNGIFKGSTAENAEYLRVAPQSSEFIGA
- TEST: EGFR binders on small-molecule microarrays, primary screen, biochemical, small-molecule microarray, 635 nm fluorescence (AID 1104);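 also: score merges 667 nm emission intensity with spot signal to noise over triplicate slides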
- EXPERIMENTAL_CONDITIONS: EGFR binding, higher = more signal

input: For C=C(C(=O)CC[C@H](OC(C)=O)c1ccc(OCCO)cc1)C(C)C , write its composite z-score.
output: 0.982

input: Tell me measured composite z-score for O=c1oc(-c2ccccc2)nc2cc(Br)ccc12 please.
output: 0.448

input: Name the recorded composite z-score of the item O=C1C[C@@](C(=O)NC2CC2)(c2ccc([N+](=O)[O-])cc2)[C@@H](c2ccc(CO)cc2)N1CC12CC3CC(CC(C3)C1)C2 in your answer.
output: 0.1

input: Query composite z-score for COCCOC(=O)N1C(=O)[C@@]2(c3cc(C#CCNC(N)=O)ccc31)[C@H](c1ccccc1OCCO)N1[C@H](c3ccccc3)[C@H](c3ccccc3)OC(=O)[C@H]1[C@@H]2C(N)=O
output: 0.528

* * *

- TEST: PSAC antagonists in infected red cells, primary screen, cell-based, P. falciparum Indochina, OD700, 2 h (AID 1155);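 also: lysis reports solute entry through the parasite surface anion channel PSAC; channel blockers reduce lysis of infected cells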
- EXPERIMENTAL_CONDITIONS: P. falciparum Indochina infected erythrocytes, osmotic lysis OD700; higher = more signal, called active from +8 up or from −8 down
Calls of active or inactive are those of the source.
Kindly state z-score for each of the entries shown.

input: Provide z-score value for the following molecule: CC1CC/C=C\[C@H]2OC34C=CCN(Cc5ccccc5)C(=O)[C@H]3N(CCCCCO)C(=O)[C@@H]4C2C(=O)O1 (stereo partly specified)
output: -0.0369 (inactive)

input: For the molecule CC(C)(C)N1CC=CC23O[C@@H]4C=CCOC(=O)[C@@H]4[C@H]2C(=O)N(CCCCCO)[C@@H]3C1=O (stereo partly specified) , give its reported z-score.
output: 0.624 (inactive)

input: Identify z-score associated with the molecule CC(C)CNC(=O)[C@@]1(c2ccc([N+](=O)[O-])cc2)CC(=O)N(CC23CC4CC(CC(C4)C2)C3)[C@@H]1c1ccc(CO)cc1
output: -0.14 (inactive)

input: Specify reported z-score for the molecule shown: COc1ccc(CCNC(=O)[C@@]2(Sc3ccc(C)cc3)CC(=O)N(Cc3ccccc3Cl)[C@@H]2c2ccc(CO)cc2I)cc1
output: 0.902 (inactive)

input: Please give the documented z-score of C[C@H]1NC(=O)[C@H](Cc2ccccc2)NC(=O)[C@@]23C(=O)N[C@@H](Cc4ccccc4)C2[C@H](C)[C@@]2(C)O[C@H]2C3/C=C/C/C=C\CNC1=O (stereo partly specified)
output: 0.142 (inactive)

input: Please give measured z-score of the following entry: COC(=O)[C@@]1(Cc2ccc(OC)cc2)[C@H]2c3cc(C(=O)N4CCCC4)n(CCc4c[nH]c5cc(F)ccc45)c3C[C@H]2CN1C(=O)c1ccccc1
output: 0.676 (inactive)

input: Hello, please tell me recorded z-score for this one: O=C1O[C@H](c2ccccc2)[C@H](c2ccccc2)N2[C@H]1[C@@H](C(=O)N1CCN(c3ncccn3)CC1)[C@]1(C(=O)Nc3ccccc31)[C@H]2c1ccc(OCCO)cc1
output: 0.395 (inactive)

input: Identify measured z-score associated with COC(=O)[C@@]1(Cc2ccc(F)cc2)[C@H]2c3cc(C(=O)N(C)C)n(CCc4ccccn4)c3C[C@H]2CN1C(=O)c1ccccc1
output: -0.0235 (inactive)

input: Specify reported z-score for the molecule shown: O=C1C2C=CC(C(O)c3ccc(B(O)O)cc3)N(Nc3ccccc3)C2C(=O)N1c1ccccc1 (stereo unspecified)
output: -0.447 (inactive)

input: Return z-score for the following molecule: COC(=O)[C@@]1(Cc2ccccc2)[C@H]2c3cc(C(=O)N(C)C)n(Cc4c(-c5ccccc5)noc4C)c3C[C@H]2CN1C(=O)c1ccccc1
output: 1.2 (inactive)

input: Supply reported z-score belonging to this molecule: COc1ccc(C(O)C2C=CC3C(=O)N(C)C(=O)C3N2Nc2ccccc2)cc1OCc1ccccc1 (stereo unspecified)
output: 1.36 (inactive)

input: Complete the entry with z-score for CCOC(=O)C[C@H]1[C@H](OC(=O)c2ccc(C(=O)c3ccccc3)cc2)[C@@H](NC(=O)C2CCCCC2)c2cc(OCCCO)ccc2N1C(=O)c1ccccc1
output: -0.889 (inactive)

input: Please give the documented z-score of COC(=O)C(CC#Cc1ccc2c(c1)[C@]1(C(=O)N2)[C@H](c2ccc(OCCO)cc2)N2[C@H](c3ccccc3)[C@H](c3ccccc3)OC(=O)[C@H]2[C@@H]1C(=O)NC[C@H](O)c1ccccc1)C(=O)OC
output: 1.14 (inactive)

input: Quick one: give measured z-score for COc1ccc([Si](C)(C)[C@H]2[C@H](CCn3cc(CCO)nn3)O[C@@]3(C(=O)N(Cc4ccc(N5CCOC5=O)cc4)c4ccccc43)[C@@H]2C)cc1
output: 34.8 (active)

input: Provide measured z-score value, entry: O=C1O[C@@H](c2ccccc2)[C@@H](c2ccccc2)N2[C@@H](c3ccc(O)cc3)[C@]3(C(=O)Nc4ccc(C#CC5(O)CCCCCC5)cc43)[C@@H](C(=O)N3CCCCCCC3)[C@H]12
output: 0.836 (inactive)

input: Give the reported z-score for this molecule. COC(=O)[C@@]1(Cc2ccccc2)[C@H]2c3cc(C(=O)N4CCCC4)n(Cc4ccc(C)o4)c3C[C@H]2CN1C(=O)c1ccccc1
output: 0.547 (inactive)

* * *

- TEST: COS7 lysate on small-molecule microarray, probe aHis, 635 nm (AID 1123);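 also: z-score combines 667nm fluorescence intensity with signal-to-noise per printed compound spot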
- EXPERIMENTAL_CONDITIONS: COS7 cell lysate, fluorescence, higher = more signal
MEASURED_PROPERTY: composite z-score
Please respond with just the number, no unit label.

input: Write down composite z-score measured for item CCCCCCc1nc(CCCc2cc3c(c(CCCCCC)n2)[Si](C(C)C)(C(C)C)OC3)cc2c1[Si](C(C)C)(C(C)C)OC2
output: 0.111

input: Give the reported composite z-score for this molecule. CCOC(=O)C1=C[C@@H](C(C)C)N(S(=O)(=O)c2ccc(C)cc2)[C@H]1c1ccc(C(C)C)cc1
output: 1.81

input: Note down composite z-score recorded for O=C1C2C=CC(C(O)c3ccc(F)cc3)N(Nc3ccccc3)C2C(=O)N1c1ccccc1 (stereo not given)
output: 2.88

input: Give the reported composite z-score for this molecule. Cc1ccc(S[C@]2(C(=O)NCc3ccccc3)CC(=O)N(Cc3ccccc3Cl)[C@@H]2c2ccc(CO)cc2I)cc1
output: 0.616

input: Fill in composite z-score for record CC(C)(C)OC(=O)CC[C@@]1(C(=O)NCCN2CCOCC2)N=C(c2ccc(OCCCO)cc2)O[C@@H]1c1ccccc1
output: 1.46

input: Please report composite z-score for the following molecule: CC(C)N1C(=O)c2ccccc2[C@@H](C(=O)NCCCN(C)C)[C@@H]1c1ccc(CO)cc1
output: 0.82

input: Supply composite z-score value. Item: [N-]=[N+]=NCc1ccccc1C[C@]1(C(=O)NCC(O)CO)N=C(c2ccc(OCCCO)cc2)O[C@H]1c1ccccc1N=[N+]=[N-] (stereo not given in full)
output: 1.57

input: Answer with the recorded composite z-score for the molecule listed here: CC(C)CNC(=O)[C@@H]1c2ccccc2C(=O)N(Cc2cc(C(F)(F)F)cc(C(F)(F)F)c2)[C@H]1c1ccc(CO)cc1
output: 0.361

input: In one line, give reported composite z-score of the entry COc1ccc(NN2C(C(O)c3ccc(OC)c(OCc4ccccc4)c3)C=CC3C(=O)N(C4CCCCC4)C(=O)C32)cc1 (stereo not given) .
output: 2.52

input: Check the records and state composite z-score for CCCNC(=O)[C@@H]1c2ccccc2C(=O)N(Cc2ccccc2)[C@H]1c1ccc(CO)cc1
output: 1.1

input: Give recorded composite z-score. COc1ccc(CCN2C(=O)[C@@]3(Cc4ccccc42)c2ccccc2C(=O)N(Cc2ccccc2Cl)[C@H]3c2ccc(CO)cc2)cc1
output: -0.247

input: Consider the molecule Cc1ccc([C@H]2C(C(=O)O)=C[C@@H](C)N2S(=O)(=O)c2ccc(C)cc2)cc1 . State its measured composite z-score.
output: 2.6

input: Provide only the value of recorded composite z-score for CN(C)C(=O)[C@@]1(CCC(=O)OC(C)(C)C)N=C(c2ccc(OCCCO)cc2)O[C@H]1c1ccccc1
output: 3.16

input: Quick one: give measured composite z-score for CN1C(=O)C2C(C1=O)C1C=C(CCCO)C2C(c2cccs2)N1C (stereo not given)
output: 0.138

input: Quote composite z-score reported for CN(C)CCCCCCNC(=O)[C@H]1C[C@H]2C(=O)N[C@@H](CCCCN)C(=O)N2[C@H]1c1ccc(O)cc1 please.
output: 4.3

input: Answer with the recorded composite z-score of O=C1OCC=C[C@H]2OC34C=CCN(c5ccc(Cl)cc5)C(=O)[C@H]3N(CCCCCCO)C(=O)[C@@H]4[C@@H]12 (stereo not given in full) only.
output: 0.568

input: Return value of composite z-score for input COCCOC(=O)N1C(=O)[C@@]2(c3cc(C#CC4(O)CCCCCC4)ccc31)[C@H](C(=O)N1CCCCCCC1)[C@H]1C(=O)O[C@H](c3ccccc3)[C@H](c3ccccc3)N1[C@@H]2c1ccccc1OCCO , no commentary.
output: 2.83

input: Provide only the value of recorded composite z-score for [N-]=[N+]=Nc1ccccc1[C@@H]1OC(c2ccc(OCCCO)cc2)=N[C@]1(CCS(=O)(=O)c1ccccc1)C(=O)N1CCOCC1
output: 2.89

input: Fill in composite z-score for record O=C1O[C@@H](c2ccccc2)[C@@H](c2ccccc2)N2[C@@H](c3ccc(O)cc3)[C@]3(C(=O)Nc4ccc(C#CC5(O)CCCCCC5)cc43)[C@@H](C(=O)N3CCCCCCC3)[C@H]12
output: 3.88

input: Report measured composite z-score; entry is CN1CCC(CCCO)=CC1c1ccc(CN2CCCC2)cc1 (stereo not given)
output: 1.46

input: For the molecule COC(=O)[C@@]1(Cc2ccc(OC)cc2)[C@H]2c3cc(C(=O)N4CCCC4)n(Cc4cc(F)cc5c4OCOC5)c3C[C@H]2CN1C(=O)c1ccccc1 , give its measured composite z-score value.
output: 2.39

input: Determine its reported composite z-score: C[C@]1(C(=O)NCc2ccccc2)c2ccccc2C(=O)N(Cc2ccc(OC(F)(F)F)cc2)[C@H]1c1ccc(CO)cc1
output: 1.78

input: Supply measured composite z-score of CC(C)(C)N1CC=CC23O[C@@H]4C=CCOC(=O)[C@@H]4[C@H]2C(=O)N(CCCCCO)[C@@H]3C1=O (stereo not given in full) in your reply.
output: 0.121

input: Retrieve composite z-score measured for O=C(OCCF)C1=CCC(c2cccc(Cl)c2)O1 (stereo not given) and print it.
output: 0.751

input: Assign composite z-score to the following record: C=CC[C@]1(C(=O)N2CCOCC2)N=C(c2ccc(OCCCO)cc2)O[C@H]1c1ccccc1
output: 3.15

input: Query composite z-score for COC(=O)c1c(CC[C@@H](CO)NC(=O)N[C@@H](Cc2ccccc2)Cn2cc(C3(O)CCCCC3)nn2)oc(C(C)=O)c1C(=O)OC
output: 0.287

input: Give composite z-score for O=C1c2ccccc2[C@@]2(Cc3ccccc3N(Cc3ccccc3)C2=O)[C@H](c2ccc(CO)cc2)N1C1CCCCC1
output: 1.03

input: Determine its reported composite z-score: CC(C)C[C@@H]1NC(=O)[C@@H]2C[C@H](C(=O)NCCCCCC[N+](C)(C)C)[C@H](c3ccc(O)cc3)N2C1=O
output: 1.58

input: Read off the recorded composite z-score for COC(=O)[C@@]1(Cc2ccc(F)cc2)[C@H]2c3cc(C(=O)N(C)C)n(CCc4ccccn4)c3C[C@H]2CN1C(=O)c1ccccc1
output: 2.75

input: State its composite z-score for this molecule: COc1ccc(C(=O)Nc2cccc(CN3C(=O)[C@]4(O[C@H](CC(=O)N5CCC[C@H]5CO)[C@@H]([Si](C)(C)c5ccc(OC)cc5)[C@@H]4C)c4ccccc43)c2)cc1
output: 1.79
